Molecular target: T1, human SLC34A2 (human, UniProt O95436 1-690)
T1 construct: whole, on cells; also called human solute carrier 34 A2; NaPi2b
T1 sequence (looked up): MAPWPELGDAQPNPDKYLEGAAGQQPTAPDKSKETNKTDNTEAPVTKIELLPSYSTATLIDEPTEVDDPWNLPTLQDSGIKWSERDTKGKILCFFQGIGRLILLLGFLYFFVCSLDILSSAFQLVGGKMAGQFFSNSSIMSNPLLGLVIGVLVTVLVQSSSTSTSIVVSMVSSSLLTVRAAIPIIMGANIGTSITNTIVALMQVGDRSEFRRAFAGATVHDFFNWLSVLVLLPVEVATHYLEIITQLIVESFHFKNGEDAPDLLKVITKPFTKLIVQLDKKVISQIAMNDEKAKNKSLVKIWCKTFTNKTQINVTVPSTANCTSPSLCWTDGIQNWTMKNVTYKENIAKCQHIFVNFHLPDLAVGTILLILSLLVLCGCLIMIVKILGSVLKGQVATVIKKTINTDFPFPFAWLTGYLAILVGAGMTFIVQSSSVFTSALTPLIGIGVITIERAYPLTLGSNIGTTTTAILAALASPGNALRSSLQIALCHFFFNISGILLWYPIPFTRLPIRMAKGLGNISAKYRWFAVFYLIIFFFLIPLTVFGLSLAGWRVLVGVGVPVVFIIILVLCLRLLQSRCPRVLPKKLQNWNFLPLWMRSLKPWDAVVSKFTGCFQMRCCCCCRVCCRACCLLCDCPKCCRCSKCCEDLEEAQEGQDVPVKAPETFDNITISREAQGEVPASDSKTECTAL
Assay: FACS, OVCAR3 cells
observation type: Top (MFI)

Take a look at these entries with their results.
[
  {
    "binder": "xi78D1B10 hIgG1 (antibody, V domains shown, chimeric, hIgG1) VH: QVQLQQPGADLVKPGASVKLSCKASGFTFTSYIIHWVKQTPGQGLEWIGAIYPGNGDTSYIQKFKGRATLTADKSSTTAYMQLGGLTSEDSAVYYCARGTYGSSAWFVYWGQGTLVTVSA VL: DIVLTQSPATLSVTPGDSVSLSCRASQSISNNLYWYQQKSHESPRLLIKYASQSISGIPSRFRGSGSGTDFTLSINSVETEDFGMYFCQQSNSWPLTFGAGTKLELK",
    "Top (MFI)": "27500 MFI"
  },
  {
    "binder": "xi30H9B8F9 hIgG1 (antibody, V domains shown, chimeric, hIgG1) VH: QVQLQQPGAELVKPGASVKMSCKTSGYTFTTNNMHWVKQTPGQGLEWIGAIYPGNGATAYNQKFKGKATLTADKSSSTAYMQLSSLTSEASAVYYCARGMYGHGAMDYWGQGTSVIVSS VL: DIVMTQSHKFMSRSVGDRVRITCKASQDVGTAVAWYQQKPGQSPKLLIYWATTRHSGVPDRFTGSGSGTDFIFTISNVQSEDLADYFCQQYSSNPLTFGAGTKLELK",
    "Top (MFI)": "41900 MFI"
  }
]

Now examine the next entry.
Query: What value of Top (MFI) has been recorded for this entry: xi62G10E4G8 hIgG1 (antibody, V domains shown, chimeric, hIgG1) VH: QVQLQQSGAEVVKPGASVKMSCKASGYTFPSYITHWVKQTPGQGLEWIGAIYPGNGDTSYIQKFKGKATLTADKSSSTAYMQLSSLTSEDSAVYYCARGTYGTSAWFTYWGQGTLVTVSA VL: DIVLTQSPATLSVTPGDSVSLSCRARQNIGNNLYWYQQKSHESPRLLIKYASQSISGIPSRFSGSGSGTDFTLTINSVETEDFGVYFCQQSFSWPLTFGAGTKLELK
Reply: 43000 MFI
